System: CHLA-99
ASSAY NAME: MTS GI50, Myc-dependent panel
Format: cell-based
EXPERIMENTAL SETUP: CHLA-99, 72 h; read-out: GI50
Assign classes using reported GI50 values and the ranges low (below 0.06 µM), intermediate (0.06 µM to below 0.3 µM), high (0.3 µM or more), please.

QUERY: Looking at COc1cc2c3c(n(CCCn4ccnc4)c(=O)c2cc1OC)-c1cc2c(cc1C3=O)OCO2 , which class would you pick?
RESULT: intermediate

====

ASSAY NAME: Brain penetration and plasma/brain pharmacokinetics in combination with Temodar or Lynparza
EXPERIMENTAL SETUP: mouse, plasma, oral, Plasma Conc, Temador 125 mg/kg PO + LMP400 10 mg/kg IV, 1 h
OBSERVED PROPERTY: concentration at 1 h (µM)
Numbers only, in µM.

QUERY: What does the record list as concentration at 1 h for Cn1nnc2c(C(N)=O)ncn2c1=O ?
RESULT: 205
